system: SN12C renal; experiment: NCI-60 one-dose screen, 48 h; conditions: 10 µM unless noted
This is part of a sample that, as a whole, favours compounds with a hit. Of some 83,000 tested, about 20% had one in any assay. Active and inactive are the calls of the source. The calls were made as follows: active = growth percent below 10; inactive = the rest.
# output must be one of True = active, False = inactive

> print(dat)
                                   molecule  assigned.class
1                 Nc1c(Cl)cccc1[N+](=O)[O-]           False
2  C=CCN1C(=O)c2cccc3c(-c4ccc5c(c4)ncn5C4CCCCC4)ccc(c23)C1=O           False

Input line: Could you please tell me the result logged for Nc1nc(=S)c2ncn(C3OC(COC(=O)c4ccc(Cl)cc4)C(OC(=O)c4ccc(Cl)cc4)C3OC(=O)c3ccc(Cl)cc3)c2[nH]1 (centres undefined) in this assay?
Output line: False

Input line: So what was the verdict on CO[C@@H](C)Cn1c(=O)n(C)c2cnc3ccc(-c4cncc(C(C)(C)O)c4)cc3c21 in this test?
Output line: False

Input line: Hi, sorry to bother you, what did the test record for COc1ccc(-c2ccc3ncc4c(c3c2)n(-c2ccc(N3CCNCC3)c(C(F)(F)F)c2)c(=O)n4C)cn1 ?
Output line: True

Input line: Which outcome was entered for the molecule C=CC(=O)Nc1cc2c(Nc3ccc(F)c(Cl)c3)ncnc2cc1OCCCN1CCOCC1 in this test?
Output line: True

Input line: Give the logged outcome of this assay for the following molecule: c1ccc2c(c1)CCN(NCCN1CCCC1)C2
Output line: False

Input line: Record lookup: outcome of this test for CCc1ccc(C2=C(O)C(=O)C(c3ccc(CC)cc3)=C(O)C2=O)cc1 ?
Output line: True

Input line: Just curious, what result did Cc1ccc(F)c(NC(=O)Nc2ccc(-c3cccc4[nH]nc(N)c34)cc2)c1 get here?
Output line: False
